System: Escherichia coli
assay comment: Antibacterial activity against KPC producing Escherichia coli ATCC BAA-2340 assessed as inhibition of bacterial growth incubated for 18 to 24 hrs by broth microdilution method
Format: functional
measurement setup: time 18-24 hrs
Bridge positions count the residues as written; N and C are the ends. Square brackets hold non-standard residues; d marks the D form. Peptide text beside a SMILES is read from it. * marks the point of attachment. Decanoyl(3R-OH) = CCCCCCC[C@@H](O)CC(=O)*; dDab = NCC[C@@H](N)C(=O)O; Dab = NCC[C@H](N)C(=O)O
test readout: MIC

molecule	test system	MIC
CCCCCCCCCC(=O)N[C@H](CCN)C(=O)N[C@H]1CCNC(=O)[C@H]([C@@H](C)O)NC(=O)[C@H](CCN)NC(=O)[C@H](CCN)NC(=O)[C@H](CC(C)C)NC(=O)[C@@H](CC(C)C)NC(=O)[C@H](CCCN)NC1=O	Escherichia coli	> 64 µg/mL
CC[C@H](C)CCCCC(=O)N[C@H](CCN)C(=O)N[C@H]1CCNC(=O)[C@H](CC(C)C)NC(=O)[C@H](CCN)NC(=O)[C@H](CCN)NC(=O)[C@H](CC(C)C)NC(=O)[C@@H](CC(C)C)NC(=O)[C@H](CCN)NC1=O	Escherichia coli	1 µg/mL
CCCCCCC[C@@H](O)CC(=O)N[C@H](CCN)C(=O)N[C@H]1CCNC(=O)[C@H](CC(C)C)NC(=O)[C@H](CCN)NC(=O)[C@H](CCN)NC(=O)[C@H](CC(C)C)NC(=O)[C@@H](Cc2ccccc2)NC(=O)[C@H](CCN)NC1=O ({Decanoyl(3R-OH)}-[dDab][Dab][Dab][dF]L[Dab][Dab]L; lactam 2-C)	Escherichia coli	2 µg/mL
CCCCCCCCCC(=O)N[C@@H](C(=O)N[C@H]1CCNC(=O)[C@H]([C@@H](C)O)NC(=O)[C@H](CCN)NC(=O)[C@H](CCN)NC(=O)[C@H](CC(C)C)NC(=O)[C@@H](CC(C)C)NC(=O)[C@H](CCN)NC1=O)[C@H](C)O	Escherichia coli	64 µg/mL
CCCCCCCCCC(=O)N[C@H](CCN)C(=O)N[C@H]1CCNC(=O)[C@H]([C@@H](C)O)NC(=O)[C@H](CCN)NC(=O)[C@H](CCN)NC(=O)[C@H](CC(C)C)NC(=O)[C@@H](Cc2ccccc2Cl)NC(=O)[C@H](CCN)NC1=O	Escherichia coli	2 µg/mL
CCCCCCCCCC(=O)N[C@H](CCN)C(=O)N[C@H]1CCNC(=O)[C@H]([C@@H](C)O)NC(=O)[C@H](CCN)NC(=O)[C@H](CCN)NC(=O)[C@H](CC(C)C)NC(=O)[C@@H](Cc2ccc(C(C)(C)C)cc2)NC(=O)[C@H](CCN)NC1=O	Escherichia coli	2 µg/mL
CCCCCCCCCC(=O)N[C@H](CCN)C(=O)N[C@H]1CCNC(=O)[C@H]([C@@H](C)O)NC(=O)[C@H](CCN)NC(=O)[C@H](CCN)NC(=O)[C@H](CC(=O)O)NC(=O)[C@@H](CC(C)C)NC(=O)[C@H](CCN)NC1=O	Escherichia coli	> 64 µg/mL
CCCCCCC[C@@H](O)CC(=O)N[C@H](CCN)C(=O)N[C@H]1CCNC(=O)[C@H](CC(C)C)NC(=O)[C@H](CCN)NC(=O)[C@H](CCN)NC(=O)[C@H](Cc2ccccc2)NC(=O)[C@@H](CC(C)C)NC(=O)[C@H](CCN)NC1=O	Escherichia coli	8 µg/mL

Now consider the entry below.
Looking up CCCCCCCC(=O)N[C@H](CCN)C(=O)N[C@H]1CCNC(=O)[C@H](CC(C)C)NC(=O)[C@H](CCN)NC(=O)[C@H](CCN)NC(=O)[C@H](CC(C)C)NC(=O)[C@@H](CC(C)C)NC(=O)[C@H](CCN)NC1=O , I see its MIC listed as 2 µg/mL
